Target: UniProtKB P21980
Sequence (P21980 2-687): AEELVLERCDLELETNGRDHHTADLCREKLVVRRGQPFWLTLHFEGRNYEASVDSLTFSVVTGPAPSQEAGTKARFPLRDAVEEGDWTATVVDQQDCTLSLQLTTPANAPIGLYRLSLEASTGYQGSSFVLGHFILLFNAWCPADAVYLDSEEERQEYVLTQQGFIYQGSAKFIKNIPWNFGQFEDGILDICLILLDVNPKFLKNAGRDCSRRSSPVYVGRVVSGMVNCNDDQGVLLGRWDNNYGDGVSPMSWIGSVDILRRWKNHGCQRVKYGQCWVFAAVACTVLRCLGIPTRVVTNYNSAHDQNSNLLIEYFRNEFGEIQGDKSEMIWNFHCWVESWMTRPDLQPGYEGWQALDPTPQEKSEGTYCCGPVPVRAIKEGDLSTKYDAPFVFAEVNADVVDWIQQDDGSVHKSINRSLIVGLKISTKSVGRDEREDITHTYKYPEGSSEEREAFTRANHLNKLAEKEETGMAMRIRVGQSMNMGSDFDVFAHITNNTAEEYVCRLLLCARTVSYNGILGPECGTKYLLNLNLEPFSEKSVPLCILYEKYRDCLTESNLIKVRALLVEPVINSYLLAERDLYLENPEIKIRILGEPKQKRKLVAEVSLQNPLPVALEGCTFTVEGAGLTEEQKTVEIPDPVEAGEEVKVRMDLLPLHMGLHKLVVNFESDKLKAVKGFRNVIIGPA
Kindly supply the reported pIC50 values for the records listed here.
// pIC50: -log10(molar conc.)

Give the measured pIC50 of N[C@@H](CSSC[C@H](N)C(=O)O)C(=O)O .
3.85

Check CCC(C)SSc1ncc[nH]1 (centres unmarked) [PX12, 1-methylpropyl 2-imidazolyl disulfide] too.
6.15
